The measurements presented in this section are drawn from the supplement of paper PMC10567573.

# method: protein stability index of a GFP-peptide fusion (GPS, HEK-293T) (PSI 1-6); higher = more stable;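 also: 24-mer peptide tiles fused after GFP, lentivirally expressed, FACS-sorted into six equal bins by GFP/DsRed ratio, decoded by Illumina sequencing, PSI is the read-weighted mean bin number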
# test.context: treatment: MLN4924 1 uM, 8 h; c terminus: a fixed tail appended
Returns one of 1 (yes) or 0 (no); 1 (yes) when protein stability index is >= 4.

input.sequence: IPHTHLLATLDPLALDREPPPHLL [WDR88]
label.class: 0 (no)
--
input.sequence: SQVSWEQDLKLFLQEPGVFSPTPP [FCHSD1]
label.class: 0 (no)
--
input.sequence: YWPLEKDSRIRFGFLTVTNLGVEN [PTPN9]
label.class: 0 (no)
--
input.sequence: EGGDESDLSSESSIKKKFLKRKGK [EHMT1]
label.class: 1 (yes)
--
input.sequence: GAASLPSELIVHIFSFLPAPDRLR [FBXO33]
label.class: 0 (no)
--
input.sequence: LLKPHSYGRFIRWLNKEKGIFKIE [SPDEF]
label.class: 0 (no)
--
input.sequence: RQNSAPARMLSSNERDSSEPGNFI [CDC25A]
label.class: 1 (yes)
--
input.sequence: AVKDGLIVETLTVGCKGSKAGIEQ [ZMYND11]
label.class: 0 (no)
--
input.sequence: ALVRWWNGIGAVLDFTHPKARDWF [MYORG]
label.class: 0 (no)
--
input.sequence: HSGFEDELSEVLENQSSQAELKEA [CHGA]
label.class: 1 (yes)
--
input.sequence: RKDLAKLHREVRSTPLTATPGGRG [VTI1B]
label.class: 1 (yes)
--
input.sequence: RAAQLQHSEKMAQYLEEERHMREE [CCDC6]
label.class: 1 (yes)
--
input.sequence: TLDQTTSEEAPGGTELIQTPLASS [HDAC6]
label.class: 1 (yes)
--
input.sequence: LGQQQRDMRRDEEGSLCAAHLPKA [FBF1]
label.class: 1 (yes)
--
input.sequence: MHKHNETSQKIAARAFAQRYLADL [RSPH3]
label.class: 0 (no)
--
input.sequence: ISHWHPNITINIVDDHTPWVKGSV [CLPTM1]
label.class: 0 (no)
--
input.sequence: DGGALLGVLQYRGAELHLQPLEGG [ADAMTS4]
label.class: 0 (no)
--
input.sequence: RGELSARQMHLARFLRMLLRLADE [RAD51]
label.class: 0 (no)
--
input.sequence: QEILLAHRRFCELLPQEQRSVESS [CIB1]
label.class: 1 (yes)
--
input.sequence: TVDCEPSDLFRLQEYNIPGVIQSV [CDS2]
label.class: 0 (no)
--
input.sequence: LPWQGLKADTLKERYQKIGDTKRA [CSNK1G3]
label.class: 0 (no)
--
input.sequence: NSSGDFSQAHSTLKLANHQRPVSR [TRAF3IP2]
label.class: 1 (yes)
--
input.sequence: FQQPAPEYHQPQAPANVAKIQLRL [LOXL2]
label.class: 0 (no)
--
input.sequence: QLIYNHITTRVNSEQEHFLIVPFG [ADD1]
label.class: 0 (no)
--
input.sequence: ASKCKGAAVKLADFGLAIEVQGDQ [CAMK2B]
label.class: 0 (no)
--
input.sequence: NSRFQMLFTSFQEPPCEGNTFFCH [NETO1]
label.class: 0 (no)

###

# method: protein stability index of a GFP-peptide fusion (GPS, HEK-293T) (PSI 1-6); higher = more stable
# test.context: treatment: MLN4924 1 uM, 8 h; c terminus: a fixed tail appended
Returns one of Y or N; Y when protein stability index is >= 4.

input.sequence: ARRRVCHTEDFQKEEGTVNGASWH [CPXM2]
label.class: Y
--
input.sequence: YQDMIYAVGGRDDTTELSSAERYN [KLHL20]
label.class: N
--
input.sequence: TDLVQFLLFKYQMKEPITKAEILE [MAGEA10]
label.class: N
--
input.sequence: RELRKPEEPENGEPTAAATARRSK [PWWP2B]
label.class: Y
--
input.sequence: AAAVLFRMSEDKPQDYKKRLSVEL [CTNNB1]
label.class: N
--
input.sequence: ALLWLSCSIALLRALATSNARAQQ [GNAS]
label.class: N
--
input.sequence: IDPETKKHIPYREHKSLTGTARYM [CSNK1G3]
label.class: N
--
input.sequence: KAKKNKDKYVGVSSDSVGGFRYSE [CLINT1]
label.class: Y
--
input.sequence: PAIVEAGGMQALGLHLTDPSQRLV [CTNNB1]
label.class: N
--
input.sequence: TGMWWRHLVAGGGAGAVSRTCTAP [SLC25A25]
label.class: N
--
input.sequence: EGARAAGLGELGAALLQLVRRLQA [ESRRA]
label.class: N
--
input.sequence: LEGEEENELTLNEKNFFPEYNYDW [CHGB]
label.class: Y
--
input.sequence: GLQHAPEPDAADGPYDPNSVRISF [SMAD6]
label.class: Y
--
input.sequence: NEIESRHRELLRLESRIRDVHELF [STX11]
label.class: N
--
input.sequence: VGRLYAVYDQAVSIFYDLPQGSGF [SMAD6]
label.class: N
--
input.sequence: SSIPRRDDFFRHESGEHFRSLLGY [RAD54B]
label.class: N
--
input.sequence: VNIEWHRFRFGQDQLLLATGLNNG [WSB1]
label.class: N
--
input.sequence: AGTAGHPPSGSQPLTSTQGLEHAA [FBF1]
label.class: Y
--
input.sequence: DRTAIRSDTTHLVTLGGVLRQQLV [KLHL13]
label.class: N
--
input.sequence: TTFQDVYFVSESFEDAKEKMREFT [TPH1]
label.class: N
--
input.sequence: MGHIKPDLIDVDLIRGSTFAKAKP [PHTF1]
label.class: N
--
input.sequence: KPYNCLQCLDKTNESALVKEKELS [MTUS2]
label.class: Y
--
input.sequence: PELRQLVLSLLSLEPAQRPPLSHI [NEK8]
label.class: N
--
input.sequence: AFYDVTGGMSHLHTFRATFQEPLY [TRIM14]
label.class: N
--
input.sequence: SQWDVLSGDCDQRFRFPSPILKVQ [RBBP5]
label.class: N
--
input.sequence: KISYIGLMTQSSLETHHYVDCGGN [TMEM106C]
label.class: N
--
input.sequence: MAGLQRLASHLPVGVMLPHNTTEA [ZC2HC1C]
label.class: N
--
input.sequence: GGFGGGDGGLLSGNEKITMQNLND [KRT15]
label.class: Y
--
input.sequence: HSKGHKSSRQEKRPLCAQGDWHSP [ELOA2]
label.class: Y
--
input.sequence: DDGYSTKDSYSSRDYPSSRDTRDY [RBMX]
label.class: Y
--
input.sequence: IGDSRPPSFHPHAGGGSQENLDND [DVL3]
label.class: Y
--
input.sequence: ETFAFQAEIAQLMSLIINTFYSNK [HSP90AB1]
label.class: N
--
input.sequence: LNMRSTYAKLAAVAVFFIMLIVYV [SEC22B]
label.class: N
--
input.sequence: QQPSLNTMIQQQNMQQPMNVMTQS [CLINT1]
label.class: Y
--
input.sequence: LTASTMEILLDFVYTETVHVTVEN [KLHL12]
label.class: N
--
input.sequence: SGREHNFTRPNEKGEYEVAEGIGS [BTBD10]
label.class: Y
--
input.sequence: CTAKCGERSVVTRDIRCSEDEKLC [ADAMTSL2]
label.class: Y
--
input.sequence: GALEALELSPPLSPASHVDVDLTI [FOXJ1]
label.class: N
--
input.sequence: CTSVNTIYDNAVQGLRRHEILQWV [LRRC59]
label.class: N
--
input.sequence: VLMAVSVHSERKLLPLVTLCDGNP [SCNN1D]
label.class: N
--
input.sequence: DSYCDALTRPEPVHEFCAGRECQP [ADAMTSL2]
label.class: Y
--
input.sequence: SEADPQALLQAMKDLDGMDADILG [FBF1]
label.class: Y

###

# method: protein stability index of a GFP-peptide fusion (GPS, HEK-293T) (PSI 1-6); higher = more stable
# test.context: treatment: MLN4924 1 uM, 8 h; c terminus: a fixed tail appended
Returns one of rule met or rule not met; rule met when protein stability index is >= 3.

input.sequence: EETKKLANKYLVEDVLLLNFEEMR [KLHL14]
label.class: rule met
//
input.sequence: DFGLAARLEPLEHRRRTICGTPNY [PLK2]
label.class: rule met
//
input.sequence: RYADLEAVNRARRPLARPIKPNEI [RHOBTB2]
label.class: rule met
//
input.sequence: GIEEVTYENCLQALADVEVKYIVE [NLN]
label.class: rule met
//
input.sequence: GEPGAAAPAMYDDESAIDFSAYID [CEBPD]
label.class: rule met
//
input.sequence: PPIPILELADHIERLKANDNLKFS [PTPRD]
label.class: rule met
//
input.sequence: VDGRLTYPTCGIGYPVSSAFAFQN [SASS6]
label.class: rule not met
//
input.sequence: RHQRIHTGERPYECNECGKAFSRS [ZSCAN9]
label.class: rule met
//
input.sequence: RAPSERSGPAASEHSHRSHHSLAS [DVL3]
label.class: rule met
//
input.sequence: VPRPGTPQSPPSCRAPPPEARGIR [FCHO1]
label.class: rule met
//
input.sequence: ETVSPLPSSMDLLIQDSPDSSTSP [NANOGP8]
label.class: rule met
//
input.sequence: GASLRLAVEDGLQQFKQYSRHVTT [M1AP]
label.class: rule met
//
input.sequence: TVNTHYFSIDEELVYENFYADFGP [CDC14A]
label.class: rule not met
//
input.sequence: CWKMLSPGFDSSVYSDLCEAAEAV [ADAMTSL2]
label.class: rule met
//
input.sequence: MKRSKELITKNHSQEETSILRCWK [RNF180]
label.class: rule met
//
input.sequence: QTEELKYSIDQEFLKEYFPIEVVT [NLN]
label.class: rule met
//
input.sequence: SEMEEEKRQAVNKAVANMQGEMDR [ZMYND11]
label.class: rule met
//
input.sequence: TEGNPRWEQTHLTYRIENYTPDLP [MMP1]
label.class: rule met
//
input.sequence: YSIGRSVEGRHLYVLEFSDHPGIH [CPN1]
label.class: rule not met
//
input.sequence: LPYPKDVYSVSVDQKERCIIVRTT [DPCD]
label.class: rule not met
//
input.sequence: KKIEFGVVYSCVEGKMYTARKGKG [IMPA1]
label.class: rule met
//
input.sequence: SLKLASSELERLIVPNSNGVITTT [JUNB]
label.class: rule met
//
input.sequence: LKGARLTVEQGCQILDSLSYMRNE [FBXO39]
label.class: rule not met
//
input.sequence: HSIIISLVEAGAHTDMTNKQNKTP [FEM1B]
label.class: rule not met
//
input.sequence: NGTGDSNDFWRIEVVNRKFGNRIK [POMT2]
label.class: rule met
//
input.sequence: TAPQQKPIGKISKNKKKKLKKKQK [SRPK2]
label.class: rule met
//
input.sequence: MAHGYGEESEEERGLEPGKGRHHR [CHGB]
label.class: rule met
//
input.sequence: GRYRDARMNDLHYLNLDTWEWNEL [KLHDC2]
label.class: rule not met
//
input.sequence: LTPGFSDNAIMLFSPDFTLRNTLK [FAN1]
label.class: rule not met
//
input.sequence: RSDVEKGGKIIMPPSALDQLSRLN [UFD1]
label.class: rule met
//
input.sequence: FSHEILRDEESFFGERRIPRGRRI [ALKBH7]
label.class: rule met
//
input.sequence: FFSEIISSVSDVKFSHSGRYMLTR [PPP2R2C]
label.class: rule not met
//
input.sequence: SFTSSDKTIKSFFPHSGKDCLLCF [C8orf76]
label.class: rule not met
//
input.sequence: VIEEAKTAFLLNIQLFEELQELLT [HMOX1]
label.class: rule not met
//
input.sequence: EVEEVENVQTEFPGEDENPEKASE [TRIM55]
label.class: rule met
//
input.sequence: ADGSLRMDDPKGDFITLYQMASQS [M1AP]
label.class: rule met
//
input.sequence: SLVRDTIARVHGTFGAAACSIGFA [POP5]
label.class: rule not met
//
input.sequence: LLLASGLVITDFFGHLINGAIAVF [PTGFR]
label.class: rule met
//
input.sequence: QKNFELAFTMAENLANCERLIEVE [SMTNL2]
label.class: rule not met
//
input.sequence: KKTWKILTIMPYNSAHHCVVEVEN [KLHL14]
label.class: rule not met
//
input.sequence: LLEKVPCTLEQDHFKKQTIYRFLK [FEM1C]
label.class: rule not met
//
input.sequence: RMLIHKTEDVNTLDSEKRTPLHVA [ANKRD44]
label.class: rule met
//
input.sequence: HAPTIHFNYRYFEVEEADGNKQWW [CPOX]
label.class: rule not met
//
input.sequence: VKSRGKRLALEKVPKVGQRFNRIG [PI4K2A]
label.class: rule met
//
input.sequence: KLIDRLEKKDLKLEPPEEEIIEGN [NECAB1]
label.class: rule met
//
input.sequence: IAHDGQRIYVLGGGTSWTAYSLNK [KLHDC10]
label.class: rule not met
//
input.sequence: YIMAFDIKSEDMLKILKPSIPLER [FBXO33]
label.class: rule not met
//
input.sequence: SRFYEIHARARDQGQPAMEGHCVI [PCDHGC5]
label.class: rule not met
//
input.sequence: LGRGLVGGQEEASQEAGLPAGAGP [SEPHS2]
label.class: rule met
